- Test system: CCRIS mutagenicity, Ames/micronucleus/aberration tests
- test: CCRIS mutagenicity studies
- experimental.context: Test System: AMES SALMONELLA TYPHIMURIUM; Strain/Indicator: TA98; Metabolic Activation: NONE; Method: PREINCUBATION
Activity calls are given as the source filed them. No rule for the calls is given here.
Field 'call' accepts True (active), False (inactive)

Study these solved cases before continuing.
O=[N+]([O-])c1ccc2c(ccc3cc([N+](=O)[O-])ccc32)c1 : True
COc1ccc2c(c1)c(CC(=O)O)c(C)n2C(=O)c1ccc(Cl)cc1 : False
CC(=O)c1cccc(N=[N+]([O-])c2ccc(N)c(C(C)=O)c2C)c1C : False
COc1ccc(N)c(OC)c1 : False
N=C(N)c1ccccc1 : False

Note: attention shifts to another entry.
# input Tell me the assay call for CN(C)CCOC(C)(c1ccccc1)c1ccccn1 (configuration not stated) please.
# output False

---

- Test system: CCRIS mutagenicity, Ames/micronucleus/aberration tests
- test: CCRIS mutagenicity studies
- experimental.context: Test System: AMES SALMONELLA TYPHIMURIUM; Strain/Indicator: TA1535; Metabolic Activation: HAMSTER, LIVER, S-9, AROCLOR 1254 (10%); Method: PREINCUBATION
Calls of active or inactive are those of the source. No rule for the calls is given here.
# output must be one of TRUE for active, FALSE for inactive

O=Cc1ccc(Cl)c(Cl)c1 : FALSE
CC(C)N : FALSE
Cc1ccc(C(C)(C)C)cc1 : FALSE
Cc1ccc(N=Nc2c(O)ccc3ccccc23)c([N+](=O)[O-])c1 : FALSE
Cc1cc(O)ccc1Cl : FALSE

# evaluate next
# input Hi team, can someone confirm the assay call for O=c1c2ccc3c4c(ccc(c24)c2nc4ccccc4n12)c(=O)n1c2ccccc2nc31 ?
# output FALSE

---

- Test system: CCRIS mutagenicity, Ames/micronucleus/aberration tests
- test: CCRIS mutagenicity studies
- experimental.context: Test System: E.COLI; Strain/Indicator: WP2UVRA; Metabolic Activation: NONE; Method: PREINCUBATION
The source made the active and inactive calls. No rule for the calls is given here.
measured.attribute: mutagenic call

O=[N+]([O-])c1cccc2cccc([N+](=O)[O-])c12 : inactive; negative
O=C=Nc1cccc2c(N=C=O)cccc12 : inactive; negative
N#Cc1ccccc1C#N : inactive; negative

---

- Tested on: CCRIS mutagenicity, Ames/micronucleus/aberration tests
- test: CCRIS mutagenicity studies
- experimental.context: Test System: AMES SALMONELLA TYPHIMURIUM; Strain/Indicator: TA98; Metabolic Activation: NONE
Calls of active or inactive are those of the source. No rule for the calls is given here.
Please state which outcome applies, choosing from active, inactive

NC(=O)OC[C@@H]1[C@H](NC(=O)/C(=N\OCC(=O)O)c2csc(N)n2)C(=O)N1S(=O)(=O)O : inactive

# input Entry OCCOCCO : call = ?
# output inactive

# input Hi team, can someone confirm the assay call for Nc1cccc(O)c1 ?
# output inactive

# input Please let me know the test result on file for O=C1C[C@@H]2NCCCNCCCCN(CCCN1)C(=O)[C@@H]1c3cc2ccc3O[C@H]1c1ccc(O)cc1 .
# output active

---

- Tested on: CCRIS mutagenicity, Ames/micronucleus/aberration tests
- test: CCRIS mutagenicity studies
- experimental.context: Test System: AMES SALMONELLA TYPHIMURIUM; Strain/Indicator: TA98; Metabolic Activation: HAMSTER, LIVER, S-9, AROCLOR 1254 (30%); Method: PREINCUBATION
Calls of active or inactive are those of the source. The rule behind the calls is not given here.
Outcomes you can answer with include only these: 1.0 (active), 0.0 (inactive)

Example entries begin here.
Cc1cc(O)ccc1Cl : 0.0
O=S(=O)(O)c1ccc(N=Nc2c(O)ccc3cc(S(=O)(=O)O)ccc23)cc1 : 0.0
COc1ccc(C)cc1N : 1.0

# input Lab log entry: O=C1CCC(=O)O1 — outcome as called in the assay?
# output 0.0

---

- System: CCRIS mutagenicity, Ames/micronucleus/aberration tests
- test: CCRIS mutagenicity studies
- experimental.context: Test System: AMES SALMONELLA TYPHIMURIUM; Strain/Indicator: TA98; Metabolic Activation: RAT, LIVER, S-9, AROCLOR 1254; Method: PREINCUBATION
The source made the active and inactive calls. How the calls were made is not given here.
Returns: one label drawn from YES for active, NO for inactive

N/C(=N\O)c1ccccc1 : NO
Clc1cc(Cl)c(Cl)c(Cl)c1 : NO
O=c1cc(CO)occ1O : YES
Nc1ccc(N)c(S(=O)(=O)O)c1 : NO
Oc1cccc(O)c1O : NO

# input Could you kindly confirm the outcome this assay logged for Clc1cc(Cl)c(Cl)c(Cl)c1Cl ?
# output NO

# input What was the test verdict on OCC1CO1 (configuration not stated) ?
# output YES

---

- Tested on: CCRIS mutagenicity, Ames/micronucleus/aberration tests
- test: CCRIS mutagenicity studies
- experimental.context: Test System: AMES SALMONELLA TYPHIMURIUM; Strain/Indicator: TA97; Metabolic Activation: RAT, LIVER, S-9, AROCLOR 1254; Method: PREINCUBATION
Activity calls are given as the source filed them. No rule for the calls is given here.
Classes to choose from: active, inactive

# input Answer briefly: the call reported for CNc1ccc(N(CCO)CCO)cc1[N+](=O)[O-] in this assay.
# output active

# input Which outcome did this test record for the molecule c1ccc2[nH]ccc2c1 ?
# output inactive

# input Test call, this molecule: O=c1[nH]c(=O)n([C@H]2C[C@H](O)[C@@H](CO)O2)cc1I
# output inactive

# input Write down the call the test reported for this molecule. Item: O=C(OOC(=O)c1ccccc1)c1ccccc1
# output inactive

# input Assay outcome for O=P(O)(O)O : what was it?
# output inactive

# input For CCCCCC(=O)OCC , which call appears in the assay record?
# output inactive

---

- Test system: CCRIS mutagenicity, Ames/micronucleus/aberration tests
- test: CCRIS mutagenicity studies
- experimental.context: Test System: AMES SALMONELLA TYPHIMURIUM; Strain/Indicator: TA100; Metabolic Activation: HAMSTER, LIVER, S-9, AROCLOR 1254; Method: STANDARD PLATE
The source made the active and inactive calls. No rule for the calls is given here.
# output must be one of active, inactive

Example entries and their recorded answers appear below.
O=C1c2ccccc2CCc2ccccc21 : inactive
C=CCc1ccc(O)cc1 : inactive
Clc1cc(Cl)c(Cl)cc1Cl : inactive

# input State the result this test recorded for CC(=O)Nc1ccc(C(=O)CCl)cc1 .
# output inactive

# input Recorded call for Nc1ccc(N=Nc2ccc3c(c2)C(=O)/C(=N/Nc2ccc(Nc4ccc(N/N=C5/C(=O)c6cc(N=Nc7ccc(N)cc7N)ccc6C=C5S(=O)(=O)O)cc4S(=O)(=O)O)cc2)C(S(=O)(=O)O)=C3)c(N)c1 ?
# output inactive

# input What is the recorded call for this compound in the test? NCc1cccc(CN)c1
# output inactive

# input Called result for O=C(/C=C/c1ccc([N+](=O)[O-])cc1)c1ccccc1
# output active

# input Dear colleague, could you share the recorded outcome for CCCCC=O when you have a moment?
# output inactive

# input Assay result, entry CCCCC(CC)COC(=O)c1ccc(N(C)C)c([N+](=O)[O-])c1 (centres undefined) — outcome?
# output inactive

---

- Tested on: CCRIS mutagenicity, Ames/micronucleus/aberration tests
- test: CCRIS mutagenicity studies
- experimental.context: Test System: AMES SALMONELLA TYPHIMURIUM; Strain/Indicator: TA1535; Metabolic Activation: NONE; Method: PREINCUBATION
The source made the active and inactive calls. No rule for the calls is given here.
Use one of these outcomes when replying: yes (active), no (inactive)

CC(C)(C)CC(C)(C)c1ccc(O)cc1 : no
Oc1ccc(Cc2ccccc2O)cc1 : no
OCC(Cl)CCl (stereo not given) : yes
Cc1cc(Cl)ccc1O : no

Then there is this compound:
# input What was the test verdict on Cc1ccccc1Br ?
# output no

---

- System: CCRIS mutagenicity, Ames/micronucleus/aberration tests
- test: CCRIS mutagenicity studies
- experimental.context: Test System: AMES SALMONELLA TYPHIMURIUM; Strain/Indicator: TA98; Metabolic Activation: RAT, LIVER, S-9, AROCLOR 1254 (10%); Method: PREINCUBATION
The source made the active and inactive calls. How the calls were made is not given here.
The reply should name one outcome from 1.0 = active, 0.0 = inactive

# input Per the assay record, what outcome was assigned to CCC(C)C(C)CO (stereo not drawn) ?
# output 0.0

# input Recorded test outcome, item ClCC(Br)CBr (stereo not drawn)
# output 0.0

# input Identify the outcome logged in this assay for the compound shown: O=C1OC(=O)c2cc([N+](=O)[O-])ccc21
# output 1.0

---

- Tested on: CCRIS mutagenicity, Ames/micronucleus/aberration tests
- test: CCRIS mutagenicity studies
- experimental.context: Test System: AMES SALMONELLA TYPHIMURIUM; Strain/Indicator: TA100; Metabolic Activation: NONE; Method: STANDARD PLATE
- Description: The CCRIS database contains chemical records with carcinogenicity, mutagenicity, tumor promotion, and tumor inhibition test results. It was developed by the National Cancer Institute (NCI). Data are derived from studies cited in primary journals, current awareness tools, NCI reports, and other sources. Test results have been reviewed by experts in carcinogenesis and mutagenesis. CCRIS provides historical information from the years 1985 - 2011. It is no longer updated. […]
Activity calls are given as the source filed them. How the calls were made is not given here.
measured.attribute: mutagenic call

Observe how each entry below is paired with its result.
COc1cccc(/C=C/c2ccc([N+](=O)[O-])cc2)c1 : active; positive
Nc1ccc(Cl)c(C(F)(F)F)c1 : inactive; negative
C=COc1ccc([N+](=O)[O-])cc1 : active; positive
CC(C)Nc1nc(N)nc(Cl)n1 : inactive; negative
COC(=O)C12OC1(C)C(C(C)C)OC2=O (stereo unspecified) : inactive; negative

Here's the next entry for you.
Form: molecule = CCOC(=O)CNC(=O)CBr ; mutagenic call = inactive; negative
